Reported INHIBITION values follow for various compounds
test system: Plasmodium berghei; assay: Screen against P. berghei liver stage (PbLuc), transformed with Luciferase, at 2uM; format: functional, HepG2; conditions: tested at 2 uM
The whole screen tested about 68,000 compounds, of which about 2,700 (4%) showed an effect of 50% or more. What follows is part of a selection rich in strong results, with near analogues and random picks from the rest.
quantity kind: INHIBITION (%)

> print(dat)
                                   compound              system  quantity.kind  meas.value
1     Cc1nc(-c2ccoc2)n(CC(=O)N(C)CC(C)C)c1C  Plasmodium berghei     INHIBITION       64.82
2  Cc1noc(C)c1CCC(=O)N1CCCCC1CNS(C)(=O)=O (centres undefined)  Plasmodium berghei     INHIBITION       -3.46
3  COc1cccc(C(=O)NC(C)CCN2CCOCC2)c1F (centres undefined)  Plasmodium berghei     INHIBITION      -22.65
4  O=C(NC1CC1)[C@H]1CN(Cc2ccc3c(c2)OCO3)C[C@H]2OCC[C@@H]12  Plasmodium berghei     INHIBITION       -0.18

* * *

system: Plasmodium berghei; assay: Screen against P. berghei liver stage (PbLuc), transformed with Luciferase, at 2uM; assay type: functional, HepG2; settings: tested at 2 uM
Out of some 68,000 compounds screened, about 2,700 (4%) showed an effect of 50% or more. Only a selection was taken, and strong results are over-represented in it overall.
Reported INHIBITION values follow for various compounds
quantity kind: INHIBITION (%)

> print(dat)
                                   compound  meas.value
1  COCC(=O)N[C@H]1C[C@@H](Cc2cc(CN3CCOCC3)on2)C1(C)C       19.39
2  CN(C)CCN1CCO[C@H]2CCN(C(=O)c3cccs3)CC[C@@H]21       33.11
3  CCCN1CCC(c2cc(CCOc3ccc(C(F)(F)F)cc3)[nH]n2)C1 (stereo not drawn)       27.53

* * *

system: Plasmodium berghei; experiment: Screen against P. berghei liver stage (PbLuc), transformed with Luciferase, at 2uM; assay type: functional, HepG2; details: tested at 2 uM
The campaign covered roughly 68,000 compounds. About 2,700 (4%) showed an effect of 50% or more. This is one part of a sample in which strong results are shown more often than they occur.
quantity kind: INHIBITION (%)

> print(dat)
                                    molecule  unit.of.measure  meas.value
 1  CCC(C(=O)NC(C)(C)C)n1ccc2ncccc2c1=O (stereo not drawn)                %        8.09
 2  CSCCNC(=O)C1CCC(=O)N(C2CCCC2)C1 (stereo not drawn)                %       21.24
 3  CCn1c(C)nnc1CN(C)C1CCN(Cc2c(C)noc2C)C1 (stereo not drawn)                %        4.72
 4  CCS(=O)(=O)N1CCOC2(CCCN(c3cccc(C#N)c3)C2)C1 (stereo not drawn)                %       56.76
 5     Cc1nc(CCNC(=O)NC2CCN(c3ncccn3)CC2)cs1                %      -17.45
 6              CN1CCc2ccc(NCc3cccs3)cc2C1=O                %       50.59
 7  CCC(C(=O)NC1CCCCC1)n1cccc(OC)c1=O (stereo not drawn)                %       -6.88
 8  O=C(NCCn1cccc1)C1CCC(=O)N(C2CCCC2)C1 (stereo not drawn)                %       10.75
 9  CN(c1ccc(CNC(=O)c2c[nH]c(=O)c(Cl)c2)cc1)C1CCCCC1                %      -20.64
10  Clc1ccccc1OC1CN(CC2CCOC2)C1 (stereo not drawn)                %      -14.36
11      Cc1nc(CNC(=O)NC2CCN(c3ncccn3)CC2)cs1                %       56.78
12                 N#CCCNC(=O)CSc1cc(F)ccc1F                %       51.83
13  c1cnn(CC2CN(Cc3noc(C4CC4)n3)CCO2)c1 (stereo not drawn)                %      -28.51
14  C=C(C)CNC(=O)C1CCC(=O)N(C2CCCC2)C1 (stereo not drawn)                %        2.52
15  CCC(C(=O)NC(C)(C)C)n1cccc(OC)c1=O (stereo not drawn)                %       56.16
16  CO[C@H]1CO[C@@]2(CCCN(S(=O)(=O)c3ccccc3)C2)C1                %       -1.81
17              CN(CCC#N)C(=O)CSc1cc(F)ccc1F                %        6.82
18  Cc1nc(C)c(CN2CCC(N(C)Cc3nnc(C4CC4)o3)C2)s1 (stereo not drawn)                %        37.9
